assay: physchem; details: pH 6.8, aqueous buffer, thermodynamic from solid, 24 hr Equilibrium Solubility
parameter-measured: solubility thermodynamic at 24 h

Consider the compound shown here: CO[C@H]1C[C@H]2CC[C@@H](C1)N2c1nc(-c2c(C)ccc3[nH]nc(C)c23)nc2c1CN(c1cc(C(C)C)ccc1C)CC2 What is its recorded solubility thermodynamic at 24 h?
< 0.5 µg/mL

----------
This section presents compounds with their documented pIC50 values.
biological target: human C5aR (Homo sapiens (Human)); experiment: FLIPR assay: inhibition of C5a-mediated calcium mobilization; details: stable cell line over expressing human C5aR & Gα15, human C5a at EC50 (0.1-0.25 nM)
Sequence (P21730 whole entry): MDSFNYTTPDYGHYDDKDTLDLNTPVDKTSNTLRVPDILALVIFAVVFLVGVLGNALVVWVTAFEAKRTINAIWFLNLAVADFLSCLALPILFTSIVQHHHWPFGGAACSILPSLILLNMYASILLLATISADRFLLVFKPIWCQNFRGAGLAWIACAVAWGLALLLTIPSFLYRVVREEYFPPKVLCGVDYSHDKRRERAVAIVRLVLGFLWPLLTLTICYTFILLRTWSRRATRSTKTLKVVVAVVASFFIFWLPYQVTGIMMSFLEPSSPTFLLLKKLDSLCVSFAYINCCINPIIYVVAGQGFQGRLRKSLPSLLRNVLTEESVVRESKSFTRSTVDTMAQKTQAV
Note on units: pIC50 is unitless, being -log10 of a concentration expressed in mol/L.

Field: example entries. Status: answers known.
compound: [2H]C1([2H])c2c(C)cc(-c3c(CC)cccc3CC)nc2CC(C)N1c1cc(C(C)C)ccc1C (single isomer, unassigned) [Example 42-K]
tested-on: human C5aR (Homo sapiens (Human))
numeric-value: 6.66

compound: CO[C@@H]1CCN(c2nc(-c3c(C)cccc3C)nc3c2CN(c2cc(C(C)C)nn2C)CC3)[C@H](C)C1
tested-on: human C5aR (Homo sapiens (Human))
numeric-value: 7.40

compound: CCc1cccc(CC)c1-c1cc(C)c2c(n1)CCN(c1ccc(C)cc1C)C2
tested-on: human C5aR (Homo sapiens (Human))
numeric-value: 6.74

Provide value of pIC50 for this record tested with human C5aR (Homo sapiens (Human)): CO[C@H]1CCN(c2nc(-c3c(C)ccc4[nH]nc(C)c34)nc3c2CN(c2cc(C(F)(F)F)nn2C)CC3)CC1(C)C
7.19

Lab note: need pIC50 for CC(=O)N1CCN(c2nc(-c3cccc4[nH]cc(C)c34)nc3c2CN(c2cc(C(C)C)ccc2C)CC3)CC12CC2 on human C5aR (Homo sapiens (Human)), anyone have it?
7.74

Give human C5aR (Homo sapiens (Human)) pIC50 for CNc1nc(-c2cccc3[nH]cc(C)c23)nc2c1CN(c1cc(C(C)C)ccc1C)CC2
7.03

I'm curious: which pIC50 was measured for CO[C@H]1CCN(c2nc(-c3c(C)cccc3C)nc3c2CN(c2cc(C(F)(F)F)ccc2C)CC3)CC1(C)C tested on human C5aR (Homo sapiens (Human))?
7.77

Param readout = pIC50; param system = human C5aR (Homo sapiens (Human)); param query = Cc1c[nH]c2cccc(-c3nc4c(c(N5CCN(CC(N)=O)[C@H](C)C5)n3)CN(c3ccc(F)cc3F)CC4)c12 ; response: value
6.33

Missing value: pIC50, human C5aR (Homo sapiens (Human)), entry CCc1cccc(CC)c1-c1cc(C)c2c(n1)CCN(c1cc(C(C)C)ccc1C)C2 . Fill in?
7.66

Entry CO[C@H]1CCN(c2nc(-c3c(C)ccc4[nH]nc(C)c34)nc3c2CN(c2c(Cl)c(C4CC4)nn2C)CC3)CC1(C)C , system human C5aR (Homo sapiens (Human)): what pIC50 was measured?
8.52

Query the reported pIC50 for human C5aR (Homo sapiens (Human)); item: COCCN(C)c1cc(-c2c(C)cccc2C)nc2c1C(=O)N(c1cc(C(C)C)ccc1C)CC2
6.10

Form field: pIC50 recorded for Cc1ccc(C(C)C)cc1N1CCc2nc(-c3cccc4[nH]cc(C)c34)nc(N3CCN(S(C)(=O)=O)[C@H](C)C3)c2C1 with human C5aR (Homo sapiens (Human)) (enter value)
8.70

Look up pIC50 with human C5aR (Homo sapiens (Human)) for this compound: Cc1ccc(C(C)C)cc1N1CCc2nc(-c3cccc4[nH]cc(C)c34)nc(N3CCN(C4COC4)[C@H](C)C3)c2C1
7.80

What value of pIC50 on human C5aR (Homo sapiens (Human)) does Cc1ccc(C)c(-c2nc3c(c(N4CCN(CC(N)=O)C[C@H]4C)n2)CN(c2cc(C(C)C)ccc2C)CC3)c1 have?
7.51
